testMethodNotes: Antitumor activity for L1210 (life prolonging effect, mouse leukemia transplanted intraperitoneally)
Type: in vivo
assaySetup: mouse, in vivo, ip; numerator of therapeutic index; i.p. total dose; read-out: Maximum tolerable dose
propertyName: MTD (mg/kg)

>>> reportedmeasurement("CCc1c2c(nc3ccc(C)cc13)-c1cc([C@@](O)(CC)C(=O)NCCN(C)C)c(COC(=O)c3ccncc3)c(=O)n1C2")
50
>>> reportedmeasurement("CCCC(=O)OCc1c([C@@](O)(CC)C(=O)NCCN(C)C)cc2n(c1=O)Cc1c-2nc2ccc(Cl)cc2c1CC")
6.25
>>> reportedmeasurement("CCCC(=O)OCc1c([C@@](O)(CC)C(=O)NCCN(C)C)cc2n(c1=O)Cc1c-2nc2cc(F)c(OC)cc2c1CC")
3.13
>>> reportedmeasurement("CCc1c2c(nc3cc(Cl)c(Cl)cc13)-c1cc([C@@](O)(CC)C(=O)NCCN(C)C)c(COC(=O)CCSC)c(=O)n1C2")
3.13
>>> reportedmeasurement("CCc1c2c(nc3ccc(Cl)cc13)-c1cc([C@@](O)(CC)C(=O)NCCN(C)C)c(COC(=O)CCSC)c(=O)n1C2")
6.25
>>> reportedmeasurement("CCCC(=O)OCc1c([C@@](O)(CC)C(=O)NCCN(C)C)cc2n(c1=O)Cc1c-2nc2ccc(O)cc2c1CC")
200
>>> reportedmeasurement("CCC(=O)OCc1c([C@@](O)(CC)C(=O)NCCN(C)C)cc2n(c1=O)Cc1c-2nc2ccc(O)cc2c1CC")
200
>>> reportedmeasurement("CCc1c2c(nc3cc(F)ccc13)-c1cc([C@@](O)(CC)C(=O)NCCN(C)C)c(COC(=O)c3ccncc3)c(=O)n1C2")
25
>>> reportedmeasurement("CCOCCC(=O)OCc1c([C@@](O)(CC)C(=O)NCCN(C)C)cc2n(c1=O)Cc1c-2nc2ccc(O)cc2c1CC")
200
>>> reportedmeasurement("CCc1c2c(nc3ccc(O)cc13)-c1cc([C@@](O)(CC)C(=O)NCCN(C)C)c(COC(C)=O)c(=O)n1C2")
400
>>> reportedmeasurement("CCC(=O)OCc1c([C@@](O)(CC)C(=O)NCCN(C)C)cc2n(c1=O)Cc1c-2nc2cc(Cl)c(Cl)cc2c1CC")
6.25
>>> reportedmeasurement("CCc1c2c(nc3ccc(OC(C)=O)cc13)-c1cc([C@@](O)(CC)C(=O)NCCN(C)C)c(COC(=O)c3ccc(F)cc3)c(=O)n1C2")
200
>>> reportedmeasurement("CCc1c2c(nc3cc(F)ccc13)-c1cc([C@@](O)(CC)C(=O)NCCN(C)C)c(COC(=O)CCSC)c(=O)n1C2")
12.5

---

# maps each entry to its MTD
testMethodNotes: Antitumor activity for L1210 (life prolonging effect, mouse leukemia transplanted intraperitoneally)
Format: in vivo
assaySetup: mouse, in vivo, ip; numerator of therapeutic index; i.p. total dose; read-out: Maximum tolerable dose
propertyName: MTD (mg/kg)

>>> reportedmeasurement("CCc1c2c(nc3ccc(O)cc13)-c1cc([C@@](O)(CC)C(=O)NCCN(C)C)c(COC(=O)C(C)C)c(=O)n1C2 [Compound C46]")
400
>>> reportedmeasurement("CCc1c2c(nc3cc(F)c(OC)cc13)-c1cc([C@@](O)(CC)C(=O)NCCN(C)C)c(COC(=O)c3ccncc3)c(=O)n1C2 [Compound C43]")
6.25
>>> reportedmeasurement("CCC(=O)OCc1c([C@@](O)(CC)C(=O)NCCN(C)C)cc2n(c1=O)Cc1c-2nc2cc(F)ccc2c1CC [Compound C8]")
12.5

---

testMethodNotes: Antitumor activity for L1210 (life prolonging effect, mouse leukemia transplanted intraperitoneally)
Format: in vivo
assaySetup: mouse, in vivo, ip; numerator of therapeutic index; i.p. total dose; read-out: Maximum tolerable dose
Where a name gives a salt, the structure may show the parent alone.
propertyName: MTD (mg/kg)

>>> reportedmeasurement("CC[C@@](O)(C(=O)O)c1cc2n(c(=O)c1CO)Cc1cc3ccccc3nc1-2 [CPT-Na salt, reference compound]")
60
>>> reportedmeasurement("CCc1c2c(nc3cc(Cl)ccc13)-c1cc([C@@](O)(CC)C(=O)NCCN(C)C)c(COC(=O)CCSC)c(=O)n1C2 [Compound C12]")
25
>>> reportedmeasurement("CCc1c2c(nc3ccc(Cl)cc13)-c1cc([C@@](O)(CC)C(=O)NCCN(C)C)c(COC(=O)c3ccncc3)c(=O)n1C2 [Compound C40]")
6.25

---

# maps each entry to its 40-day survivors
System: mouse leukemia L1210
testMethodNotes: Antitumor activity for L1210 (life prolonging effect, mouse leukemia transplanted intraperitoneally)
Assay type: in vivo
assaySetup: at optimum dose; group of six female CDF1 mice
propertyName: 40-day survivors

>>> reportedmeasurement("CCOc1ccc2nc3c(c(C)c2c1)Cn1c-3cc([C@@](O)(CC)C(=O)NCCN(C)C)c(COC(=O)CCSC)c1=O [Compound C1]")
"0/6"
>>> reportedmeasurement("CCC(=O)OCc1c([C@@](O)(CC)C(=O)NCCN(C)C)cc2n(c1=O)Cc1c-2nc2ccc(Cl)cc2c1CC [Compound C3]")
"1/6"
>>> reportedmeasurement("CCc1c2c(nc3cc(F)c(C)cc13)-c1cc([C@@](O)(CC)C(=O)NCCN(C)C)c(COC(=O)c3ccncc3)c(=O)n1C2 [Compound C42]")
"2/6"
>>> reportedmeasurement("CCC(=O)OCc1c([C@@](O)(CC)C(=O)NCCN(C)C)cc2n(c1=O)Cc1c-2nc2cc(F)c(OC)cc2c1CC [Compound C20]")
"0/6"
>>> reportedmeasurement("CCc1c2c(nc3cc(F)c(C)cc13)-c1cc([C@@](O)(CC)C(=O)NCCN(C)C)c(COC(=O)c3ccc(OC)cc3)c(=O)n1C2 [Compound C26]")
"0/6"
>>> reportedmeasurement("CCc1c2c(nc3cc(F)c(OC)cc13)-c1cc([C@@](O)(CC)C(=O)NCCN(C)C)c(COC(=O)CCSC)c(=O)n1C2 [Compound C22]")
"0/6"

---

# maps each entry to its 40-day survivors
System: mouse leukemia L1210
testMethodNotes: Antitumor activity for L1210 (life prolonging effect, mouse leukemia transplanted intraperitoneally)
Format: in vivo
assaySetup: at optimum dose; group of six female CDF1 mice
propertyName: 40-day survivors

>>> reportedmeasurement("CCc1c2c(nc3cc(F)c(F)cc13)-c1cc([C@@](O)(CC)C(=O)NCCN(C)C)c(COC(=O)CCSC)c(=O)n1C2 [Compound C15]")
"0/6"
>>> reportedmeasurement("CCCC(=O)OCc1c([C@@](O)(CC)C(=O)NCCN(C)C)cc2n(c1=O)Cc1c-2nc2cc(F)c(F)cc2c1CC [Compound C14]")
"1/6"
>>> reportedmeasurement("CCc1c2c(nc3ccc(OC(C)=O)cc13)-c1cc([C@@](O)(CC)C(=O)NCCN(C)C)c(COC(=O)c3ccc(F)cc3)c(=O)n1C2 [Compound C48]")
"0/6"
>>> reportedmeasurement("CCOCCC(=O)OCc1c([C@@](O)(CC)C(=O)NCCN(C)C)cc2n(c1=O)Cc1c-2nc2ccc(O)cc2c1CC [Compound C47]")
"0/6"
>>> reportedmeasurement("CCC(=O)OCc1c([C@@](O)(CC)C(=O)NCCN(C)C)cc2n(c1=O)Cc1c-2nc2cc(F)c(C)cc2c1CC [Compound C23]")
"0/6"
>>> reportedmeasurement("CCc1c2c(nc3ccc(O)cc13)-c1cc([C@@](O)(CC)C(=O)NCCN(C)C)c(COC(C)=O)c(=O)n1C2 [Compound C45]")
"0/6"
>>> reportedmeasurement("CCc1c2c(nc3ccc(Cl)cc13)-c1cc([C@@](O)(CC)C(=O)NCCN(C)C)c(COC(=O)CCSC)c(=O)n1C2 [Compound C5]")
"3/6"
>>> reportedmeasurement("CCc1c2c(nc3cc(Cl)ccc13)-c1cc([C@@](O)(CC)C(=O)NCCN(C)C)c(COC(=O)CCSC)c(=O)n1C2 [Compound C12]")
"1/6"
>>> reportedmeasurement("CCc1c2c(nc3ccc(Cl)cc13)-c1cc([C@@](O)(CC)C(=O)NCCN(C)C)c(COC(=O)c3ccncc3)c(=O)n1C2 [Compound C40]")
"1/6"
>>> reportedmeasurement("CCC(=O)OCc1c([C@@](O)(CC)C(=O)NCCN(C)C)cc2n(c1=O)Cc1c-2nc2cc(Cl)c(Cl)cc2c1CC [Compound C17]")
"2/6"
>>> reportedmeasurement("CCc1c2c(nc3cc(Cl)c(Cl)cc13)-c1cc([C@@](O)(CC)C(=O)NCCN(C)C)c(COC(=O)CCSC)c(=O)n1C2 [Compound C19]")
"0/6"
>>> reportedmeasurement("CCc1c2c(nc3ccc(O)cc13)-c1cc([C@@](O)(CC)C(=O)NCCN(C)C)c(COC(=O)c3cccc(F)c3)c(=O)n1C2 [Compound C38]")
"0/6"
>>> reportedmeasurement("CCc1c2c(nc3cc(F)ccc13)-c1cc([C@@](O)(CC)C(=O)NCCN(C)C)c(COC(=O)c3ccncc3)c(=O)n1C2 [Compound C41]")
"2/6"
>>> reportedmeasurement("CCc1c2c(nc3ccc(O)cc13)-c1cc([C@@](O)(CC)C(=O)NCCN(C)C)c(COC(=O)c3ccc(F)cc3)c(=O)n1C2 [Compound C36]")
"0/6"
>>> reportedmeasurement("CCc1c2c(nc3cc(F)c(OC)cc13)-c1cc([C@@](O)(CC)C(=O)NCCN(C)C)c(COC(=O)c3ccncc3)c(=O)n1C2 [Compound C43]")
"2/6"
>>> reportedmeasurement("CCCC(=O)OCc1c([C@@](O)(CC)C(=O)NCCN(C)C)cc2n(c1=O)Cc1c-2nc2ccc(O)cc2c1CC [Compound C30]")
"0/6"
>>> reportedmeasurement("CCC(=O)OCc1c([C@@](O)(CC)C(=O)NCCN(C)C)cc2n(c1=O)Cc1c-2nc2cc(F)c(F)cc2c1CC [Compound C13]")
"0/6"
